Assay: Pharmacokinetics in CD-1 mice (plasma concentrations, PK parameters)
Format: in vivo
Conditions: CD-1, mouse, plasma, po, 30 mg/kg, mouse (CD1) po 30 mg/kg; 0.5 h; Mean; read-out: Concentration
ASSAY ENDPOINT: concentration at 0.5 h (ng/mL)
The reply should contain only the number, in ng/mL.

Recorded concentration at 0.5 h for O=C1CCC(N2C(=O)c3cccc(NCCOCCOCCNCc4ccc(-n5cc(NC(=O)c6coc(-c7ccnc(NCC8CC8)c7)n6)c(C(F)F)n5)cc4)c3C2=O)C(=O)N1 (stereo not shown) , please?
55

====

Assay: Pharmacokinetics in Sprague Dawley rats (plasma and brain concentrations, PK parameters)
Assay type: in vivo
Conditions: Sprague Dawley, rat, plasma, po, 10 mg/kg, Sprague Dawley rat, po 10 mg/kg, plasma, 8 h, Rat 5; read-out: Concentration Rat 5
ASSAY ENDPOINT: concentration at 8 h (ng/mL)
Write it as a number; the unit ng/mL goes unstated.

Any idea what concentration at 8 h was measured for O=C1CCC(N2C(=O)c3cccc(NCCOCCOCCNCc4ccc(-n5cc(NC(=O)c6coc(-c7ccnc(NCC8CC8)c7)n6)c(C(F)F)n5)cc4)c3C2=O)C(=O)N1 (stereo not shown) [I-210] ?
2.46

====

Assay: Pharmacokinetics in CD-1 mice (plasma concentrations, PK parameters)
Format: in vivo
Settings: CD-1, mouse, plasma, sc, 30 mg/kg, mouse (CD1) sc 30 mg/kg; individual M07-M09; read-out: MRT0-inf
ASSAY ENDPOINT: MRT inf (h)
Just the number please, in h, no unit attached.

What value of MRT inf has been reported for the following molecule? NC(=O)c1nn(-c2ccc(C(=O)NCCOCCOCCNc3cccc4c3C(=O)N(C3CCC(=O)NC3=O)C4=O)cc2)cc1NC(=O)c1coc(-c2ccnc(NCC(F)(F)F)c2)n1 (stereo not shown)
54.2

====

Assay: Pharmacokinetics in Sprague Dawley rats (plasma and brain concentrations, PK parameters)
Type: in vivo
Conditions: Sprague-Dawley, rat, plasma, iv, 3 mg/kg, Sprague Dawley rat, iv 3 mg/kg, plasma, 5 min, mean of 3 rats; read-out: Concentration Mean
ASSAY ENDPOINT: concentration at 5 min
# include the unit after the value

// returns reported concentration at 5 min for input O=C1CCC(N2C(=O)c3cccc(NCCOCCOCCNCc4ccc(-n5cc(NC(=O)c6coc(-c7ccnc(NCC8CC8)c7)n6)c(C(F)F)n5)cc4)c3C2=O)C(=O)N1 (stereo not shown)
674 ng/mL

====

Target: IRAK4 (Homo sapiens, UniProt Q9NWZ3)
Sequence (Q9NWZ3 whole entry): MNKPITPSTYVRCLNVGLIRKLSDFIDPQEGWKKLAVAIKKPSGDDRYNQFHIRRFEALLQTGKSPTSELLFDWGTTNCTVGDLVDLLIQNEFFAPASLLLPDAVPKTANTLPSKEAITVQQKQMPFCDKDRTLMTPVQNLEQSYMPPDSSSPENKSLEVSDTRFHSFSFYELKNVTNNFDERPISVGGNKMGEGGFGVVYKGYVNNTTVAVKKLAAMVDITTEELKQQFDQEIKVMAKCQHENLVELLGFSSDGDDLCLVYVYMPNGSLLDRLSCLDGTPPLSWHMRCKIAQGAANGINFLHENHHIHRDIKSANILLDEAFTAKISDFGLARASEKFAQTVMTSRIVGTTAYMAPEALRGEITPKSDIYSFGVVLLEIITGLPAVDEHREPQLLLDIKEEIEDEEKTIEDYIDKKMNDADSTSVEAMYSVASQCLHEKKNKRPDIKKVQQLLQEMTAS
Experiment: PBMC degradation assay (western blot, % IRAK4 degraded after 4 hours)
Format: cell-based
Settings: human PBMCs
ASSAY ENDPOINT: PBMC % IRAK4 Degradation

{"COMPOUND": "NC(=O)c1nn(-c2ccc(C(=O)NCCOCCOCCOCCNc3cccc4c3C(=O)N(C3CCC(=O)NC3=O)C4=O)cc2)cc1NC(=O)c1coc(-c2ccnc(NCC(F)(F)F)c2)n1 (stereo not drawn) [I-128]", "MEASUREMENT TARGET": "IRAK4 (Homo sapiens, UniProt Q9NWZ3)", "REPORTED": "A (>50% degradation)"}
{"COMPOUND": "NC(=O)c1nn(-c2ccc(C(=O)NCCOCCOCCNc3cccc4c3C(=O)N(C3CCC(=O)NC3=O)C4=O)cc2)cc1NC(=O)c1coc(-c2ccnc(NCC(F)(F)F)c2)n1 (stereo not drawn) [I-127]", "MEASUREMENT TARGET": "IRAK4 (Homo sapiens, UniProt Q9NWZ3)", "REPORTED": "A (>50% degradation)"}
